meta.source: paper PMC4501872

Experimental System: human SULT2A1 (Homo sapiens)
Sequence (Q06520 whole entry): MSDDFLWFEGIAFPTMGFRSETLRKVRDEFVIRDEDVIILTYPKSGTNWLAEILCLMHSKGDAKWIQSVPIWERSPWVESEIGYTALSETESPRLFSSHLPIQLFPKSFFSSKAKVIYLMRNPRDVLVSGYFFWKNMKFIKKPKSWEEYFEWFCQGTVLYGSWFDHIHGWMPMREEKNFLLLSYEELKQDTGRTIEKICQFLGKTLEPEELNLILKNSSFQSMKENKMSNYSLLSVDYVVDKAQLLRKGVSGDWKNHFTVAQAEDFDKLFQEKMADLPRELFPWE
Assay type: biochemical
Experimental Parameters: 0.4 μM substrate; 2 μM 35S-PAPS for 6D-E2, 20 μM PAPS for the others
Property Label: rate of 3-sulfate formation in the absence of celecoxib
Hi, when you answer, please include the unit after the number. Thanks!

Asked: Can you look up rate of 3-sulfate formation in the absence of celecoxib on human SULT2A1 (Homo sapiens) for C[C@]12CC[C@@H]3c4cc(O)c(O)cc4CC[C@H]3[C@@H]1CC[C@@H]2O [2-OH-E2, 2-hydroxyestradiol] ?
Given back: 2 pmol/min/mg protein

Asked: Can you look up rate of 3-sulfate formation in the absence of celecoxib on human SULT2A1 (Homo sapiens) for C[C@]12CC[C@H]3C(=CCc4cc(O)ccc43)[C@@H]1CC[C@@H]2O [17β-Eq, 17β-dihydroequilin] ?
Given back: 46 pmol/min/mg protein

Asked: Can you look up rate of 3-sulfate formation in the absence of celecoxib on human SULT2A1 (Homo sapiens) for C[C@]12CC=C3c4ccc(O)cc4CC[C@H]3[C@@H]1CC[C@@H]2O [9D-E2, 9-dehydroestradiol] ?
Given back: 14 pmol/min/mg protein
